test: recombinant UMI read abundance after kanamycin selection (control-corrected) (log10(CPM+1)); higher = more efficient recombination; extreme values may be limits of the assay; sequences stand for … in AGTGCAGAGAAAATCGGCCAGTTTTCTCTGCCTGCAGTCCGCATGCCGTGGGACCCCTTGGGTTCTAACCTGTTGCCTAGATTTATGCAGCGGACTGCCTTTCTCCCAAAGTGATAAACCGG…AGGTTGGTTTCACT; site = the 11-nt donor
measure name: recombinant UMI read abundance (log10)
Give the figure only, with no unit attached.

The following sequences have reported results that may help.
| primary sequence | recombinant UMI read abundance (log10) |
| --- | --- |
| TGTAACGCATGGACCGGTTTTCCCGGTAATCCGTATTTGTG (site TGTAACGCTCA) | 0.0113 |
| AAATGCTCATGGACCGGTTTTCCCGGTAATCCGTATTTGAA (site CAATGCTCTTT) | 1.65 |
| AATTTAACATGGACCGGTTTTCCCGGTAATCCGTATTTGCT (site AATATAACTAG) | 1.68 |
| ACCTAGCCATGGACCGGTTTTCCCGGTAATCCGTATTTGCC (site ACCTAGCCTGG) | 0 |
| CCCCTCCCATGGACCGGTTTTCCCGGTAATCCGTATTTGCG (site CCCCTCCCTCG) | 0.014 |

Input line: Given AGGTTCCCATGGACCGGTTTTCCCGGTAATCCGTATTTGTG (site CGGTTCCCTCA) , respond with its recombinant UMI read abundance (log10).
Output line: 0.0101

Input line: Given GGCCACACATGGACCGGTTTTCCCGGTAATCCGTATTTGTT (site GGCCACACTAA) , respond with its recombinant UMI read abundance (log10).
Output line: 0.485

Input line: Given GTAGCTGCATGGACCGGTTTTCCCGGTAATCCGTATTTGTG (site GTAGCTGCTCA) , respond with its recombinant UMI read abundance (log10).
Output line: 1.06

Input line: Given ATTTAGACATGGACCGGTTTTCCCGGTAATCCGTATTTGGT (site ATTTAGACTAC) , respond with its recombinant UMI read abundance (log10).
Output line: 0.955

Input line: Given CGGAGATCATGGACCGGTTTTCCCGGTAATCCGTATTTGCT (site CGGATATCTAG) , respond with its recombinant UMI read abundance (log10).
Output line: 0

====

Each item that follows carries a reported recombinant barcode read abundance (log10).
experiment: recombinant barcode read abundance after kanamycin selection (control-corrected) (log10(CPM+1)); higher = more efficient recombination; sequences stand for … in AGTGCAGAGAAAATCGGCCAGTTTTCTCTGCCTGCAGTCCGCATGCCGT…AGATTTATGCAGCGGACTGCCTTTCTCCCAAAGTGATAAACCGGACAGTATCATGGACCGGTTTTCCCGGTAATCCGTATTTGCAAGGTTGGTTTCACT; site = the 11-nt target
Give the figure only, with no unit attached.

| primary sequence | observed |
| --- | --- |
| CGGTCGCCTTGGGTTCTAACCTGTTGCAT (site CGGTCGCCTAT) | 0.839 |
| GAACTTGCTTGGGTTCTAACCTGTTGCCT (site GAACTTGCTAG) | 1.24 |
| CCTCAATCTTGGGTTCTAACCTGTTGCTT (site CCTCACTCTAA) | 0.0745 |

Moving on to the next sequence.
Input line: Given CTCTCAGCTTGGGTTCTAACCTGTTGCGA (site CTCTCAGCTTC) , respond with its recombinant barcode read abundance (log10).
Output line: 0.549
